Where do the numbers come from? From PubChem BioAssay (NCI).

# Test system: MCF7 breast
# experimental_protocol: NCI-60 one-dose screen, 48 h (100 = growth as untreated, 0 = no growth, -100 = all killed)
# assay_conditions: 10 µM
About 83,000 compounds went through this panel and 20% of them were active in at least one assay; those are over-represented in the sample as a whole.
parameter_measured: growth (%)
Reply with just the number (in %).

Use these answered entries as a reference point.
- molecule: "C[C@]12CC[C@H]3[C@@H](CC=C4C[C@@H](O)CC[C@@]43C)[C@@H]1CC[C@@H]2C(=O)C/C=N/O"
  growth / %: 95.6
- molecule: "COc1cccc(C2(C)Nc3ccccc3-c3nc4ccccc4n32)c1 (stereo not drawn)"
  growth / %: 103

Let us examine a further case.
[Q] Requested field: growth. Item: `COC(=O)c1cnc2c(c1)Oc1ccccc1-c1ccnn1-2`
[A] 96.3
